assay: Half life in rhesus monkey; assay type: ADME, organism-based, Macaca mulatta; settings: in vivo
Entries and their half-life
Supply the numeric figure in h, leaving out any unit text.

- N[C@@H](CC(=O)N1CCn2c(nnc2C(F)(F)F)C1)Cc1cc(F)c(F)cc1F: 3.7

[in] Recorded half-life of `C[C@@H]1c2nc(C(F)(F)F)nn2CCN1C(=O)C[C@H](N)Cc1cc(F)c(F)cc1F` , please.
[out] 7.7

###

assay: Plasma clearance in rat; assay type: ADME, organism-based
Assay Endpoint: clearance

• N[C@@H](CC(=O)N1CCn2nc(C(F)(F)F)nc2C1Cn1cccn1)Cc1cc(F)c(F)cc1F (some centres undefined) = 142 mL/min/kg
• N[C@@H](CC(=O)N1CCn2nc(C(F)(F)F)nc2C1)Cc1cc(F)c(F)cc1F = 60 mL/min/kg
• N[C@@H](CC(=O)N1CCn2c(nnc2C(F)(F)F)C1)Cc1cc(F)c(F)cc1F = 60 mL/min/kg
• N[C@@H](CC(=O)N1CCn2nc(C(F)(F)F)nc2C1Cn1ccnc1)Cc1cc(F)c(F)cc1F (some centres undefined) = 97 mL/min/kg

[in] Looking for the measured clearance of N[C@@H](CC(=O)N1CCn2nc(C(F)(F)F)nc2C1Cn1cncn1)Cc1cc(F)c(F)cc1F (some centres undefined) , can you help?
[out] 129 mL/min/kg

[in] # get_value(readout='clearance', item= `N[C@@H](CC(=O)N1CCn2nc(C(F)(F)F)nc2[C@H]1Cc1ccc(F)cc1)Cc1cc(F)c(F)cc1F` )
[out] 76 mL/min/kg

[in] Requested read-out: clearance. Entry: `C[C@@H]1c2nc(C(F)(F)F)nn2CCN1C(=O)C[C@H](N)Cc1cc(F)c(F)cc1F`
[out] 68 mL/min/kg

###

assay: Oral bioavailability in rhesus monkey; format: ADME, organism-based, Macaca mulatta; conditions: in vivo
Measured bioavailability, listed per entry for reference.
A number alone suffices; assume %.

- C[C@@H]1c2nc(C(F)(F)F)nn2CCN1C(=O)C[C@H](N)Cc1cc(F)c(F)cc1F: 65

Now let's try a different one.
[in] Quick one: bioavailability of N[C@@H](CC(=O)N1CCn2c(nnc2C(F)(F)F)C1)Cc1cc(F)c(F)cc1F [SITAGLIPTIN] ?
[out] 68
